Reported koff values are given for each entry in this list.
- target under test: T1, recombinant hSIRPa (Sino Biologicals, reference 11612-H08H) (human, UniProt P78324 31-370)
- T1 construct: also called SIRPa-His; human SIRPa-His; not shown: His tag (histidine tail)
- T1 sequence (P78324 31-370 limits assumed): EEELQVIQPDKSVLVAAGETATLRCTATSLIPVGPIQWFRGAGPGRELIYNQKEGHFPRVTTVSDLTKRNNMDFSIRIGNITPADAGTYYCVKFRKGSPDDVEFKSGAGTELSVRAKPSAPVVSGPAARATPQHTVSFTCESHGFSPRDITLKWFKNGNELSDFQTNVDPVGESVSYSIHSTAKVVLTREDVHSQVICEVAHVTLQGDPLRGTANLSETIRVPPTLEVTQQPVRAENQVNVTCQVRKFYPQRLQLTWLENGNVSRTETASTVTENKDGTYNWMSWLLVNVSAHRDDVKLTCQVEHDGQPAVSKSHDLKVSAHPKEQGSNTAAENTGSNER
- protocol description: SPR (Biacore); SIRPa-His immobilized on CM5 chip, antibody injected
Answer with a number only, understood to be in s⁻¹.

Before answering, review these 2 worked examples.
binder	output unit	assay value
HFLA (antibody, human IgG4 S228P, kappa, V domains shown, humanized 18D5 variant) VH: EVQLVQSGAEVKKPGESLRISCKASGYSFTSYWVHWVRQMPGKGLEWMGNIDPSDSDTHYSPSFQGHVTLSVDKSISTAYLQLSSLKASDTAMYYCVRGGTGTMAYFAYWGQGTLVTVSS VL: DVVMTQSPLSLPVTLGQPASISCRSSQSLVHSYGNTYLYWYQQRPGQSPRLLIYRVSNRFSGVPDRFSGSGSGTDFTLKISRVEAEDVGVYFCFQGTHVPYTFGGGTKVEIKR	s⁻¹	0.000186
HEFLA (antibody, human IgG4 S228P, kappa, V domains shown, humanized 18D5 variant) VH: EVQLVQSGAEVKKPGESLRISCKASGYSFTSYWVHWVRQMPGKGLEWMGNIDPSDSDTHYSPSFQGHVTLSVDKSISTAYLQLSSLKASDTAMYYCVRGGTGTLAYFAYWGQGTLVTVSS VL: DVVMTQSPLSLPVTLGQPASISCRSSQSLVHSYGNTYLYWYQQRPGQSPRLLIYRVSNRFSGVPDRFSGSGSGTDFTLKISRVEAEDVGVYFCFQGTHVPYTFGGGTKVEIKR	s⁻¹	0.000148

Attention now shifts to the item below.
IN: Return reported koff; argument: HFLB (antibody, human IgG4 S228P, kappa, V domains shown, humanized 18D5 variant) VH: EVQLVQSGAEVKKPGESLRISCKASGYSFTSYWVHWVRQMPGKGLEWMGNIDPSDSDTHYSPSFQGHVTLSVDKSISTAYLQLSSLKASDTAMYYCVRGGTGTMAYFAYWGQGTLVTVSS VL: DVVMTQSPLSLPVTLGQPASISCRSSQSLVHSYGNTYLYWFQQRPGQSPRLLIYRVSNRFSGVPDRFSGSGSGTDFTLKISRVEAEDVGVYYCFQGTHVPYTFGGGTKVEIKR
OUT: 0.000249
